Tested on: RAW-Dual (murine macrophage reporter line)
experimental_protocol: NF-kB reporter (SEAP) activity fold change vs agonist alone; higher = enhanced NF-kB activity
applied_conditions: modulator concentration 10 µM; agonist: LPS 0.1 ug/mL
outcome_measure: NF-kB reporter

Solved entries:
{"columns": ["structure_smiles_string", "NF-kB reporter"],
 "data": [
  ["Cc1cccc(N=c2scc(-c3ccc([N+](=O)[O-])cc3)n2-c2cccc(C)c2C)c1C", 1.04],
  ["CC(C)C1=NN2C(=N)C(=Cc3ccc(-c4ccccc4[N+](=O)[O-])o3)C(=O)N=C2S1", 0.953],
  ["Cc1ccc(CN2CCN(N=Cc3c4ccccc4cc4ccccc34)CC2)cc1", 0.881]
]}

Problem: For Cc1cc(C)n(CCCN2C(=O)c3cccc4cccc(c34)C2=O)n1 , write its NF-kB reporter.
Result: 1.04

Problem: For O=C(c1ccc(F)cc1)N(C1CCCCC1)C1CCCCC1 , write its NF-kB reporter.
Result: 0.921

* * *

System: RAW-Dual (murine macrophage reporter line)
experimental_protocol: IRF reporter (Lucia luciferase) activity fold change vs agonist alone; higher = enhanced IRF activity
applied_conditions: modulator concentration 10 µM; agonist: MPLA […]
outcome_measure: IRF reporter

Solved entries:
{"columns": ["molecule", "outcome_measure", "value_observed"],
 "data": [
  ["CN(CCO)c1ccc2nonc2c1[N+](=O)[O-]", "IRF reporter", 0.996],
  ["CC1=CC(=NS(=O)(=O)c2ccc(C)cc2)C=C(Cl)C1=O", "IRF reporter", 0.428],
  ["CCCCC(=O)N(Cc1ccc(-c2ccccc2-c2nn[nH]n2)cc1)C(C(=O)O)C(C)C (stereo unspecified)", "IRF reporter", 1.04],
  ["Br.COc1ccc2c3c1O[C@H]1C[C@@H](O)C=C[C@@]31CCN(C)C2", "IRF reporter", 1.11],
  ["CCn1c(=O)c(-c2ccn[nH]2)cc2c(C)nc(N)nc21", "IRF reporter", 1.45]
]}

Shift focus to the following entry.
Problem: For COc1ccccc1S(=O)(=O)N1CC(Oc2nc3c(C(F)(F)F)cccc3s2)C1 , write its IRF reporter.
Result: 1.5

* * *

System: RAW-Dual (murine macrophage reporter line)
experimental_protocol: NF-kB reporter (SEAP) activity fold change vs agonist alone; higher = enhanced NF-kB activity
applied_conditions: modulator concentration 10 µM; agonist: MPLA […]
In this section we review reported NF-kB reporter values for a set of compounds.
API note: the answer field is a bare number with no unit suffix.

{"columns": ["compound", "NF-kB reporter"],
 "data": [
  ["COc1ccc(OC)c(NC(=O)COc2cccc3c2OC(C)(C)C3)c1", 1.22],
  ["CCC(=O)N(CCC(c1ccccc1OC)C1CCOC(C)(C)C1)Cc1ccc(OC)cc1 (stereo unspecified)", 0.938]
]}

Problem: For COc1ccccc1N1CCN(CC(O)COc2cccc3ccccc23)CC1.Cl.Cl (stereo unspecified) , write its NF-kB reporter.
Result: 0.725

Problem: For COCC(C)(CNS(=O)(=O)c1ccccc1Br)OC (stereo unspecified) , write its NF-kB reporter.
Result: 0.933

Problem: For CCOC(=O)c1ccc(-c2ccc(C=C(C#N)C(=O)Nc3ccc(F)cc3)o2)cc1 , write its NF-kB reporter.
Result: 1.05

Problem: For Cc1ccc(Sc2cc(Sc3ccc(C)cc3)c3noc4c3c2C(=O)c2ccccc2-4)cc1 , write its NF-kB reporter.
Result: 0.957

Problem: For O=C1OC(c2ccc3ccccc3c2)=NC1=Cc1ccc(Cl)c([N+](=O)[O-])c1 , write its NF-kB reporter.
Result: 0.881

Problem: For O=C(CC1Sc2ccccc2NC1=O)Nc1ccccc1Cl (stereo unspecified) , write its NF-kB reporter.
Result: 1.01

Hello, the source for this data is the supplement of paper PMC10646978, in case you need it.
